Origin of values: patent US20110118131A1

Reported fold difference in affinity vs parental is given for each of the following binders.
Assay system: T1, IL-1beta (UniProt P01584 117-269)
T1 construct: also called IL-1β
Assay overview: Biacore

Binder	Measurement units	fold difference in affinity vs parental
XPA23 Fab, heavy chain I51D (Fab, V domains shown) VH: EVQLLESGGGLVQPGGSLRLSCAASGFTFSKYFMFWVRQAPGKGLEWVSVDSPSGGMTRYADSVKGRFTISRDNSKNTLYLQMNSLRAEDTAVYYCARVGYGGNSDYWGQGTLVTVSS VL: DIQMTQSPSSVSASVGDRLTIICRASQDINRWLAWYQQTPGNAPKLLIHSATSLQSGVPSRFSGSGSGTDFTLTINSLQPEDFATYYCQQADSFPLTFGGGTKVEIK	fold	0.07
XPA23 Fab, heavy chain G55K (Fab, V domains shown) VH: EVQLLESGGGLVQPGGSLRLSCAASGFTFSKYFMFWVRQAPGKGLEWVSVISPSKGMTRYADSVKGRFTISRDNSKNTLYLQMNSLRAEDTAVYYCARVGYGGNSDYWGQGTLVTVSS VL: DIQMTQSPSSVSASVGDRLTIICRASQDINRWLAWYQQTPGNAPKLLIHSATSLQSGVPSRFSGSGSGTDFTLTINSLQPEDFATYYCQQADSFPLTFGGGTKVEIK	fold	0.11
XPA23 Fab, heavy chain I51H (Fab, V domains shown) VH: EVQLLESGGGLVQPGGSLRLSCAASGFTFSKYFMFWVRQAPGKGLEWVSVHSPSGGMTRYADSVKGRFTISRDNSKNTLYLQMNSLRAEDTAVYYCARVGYGGNSDYWGQGTLVTVSS VL: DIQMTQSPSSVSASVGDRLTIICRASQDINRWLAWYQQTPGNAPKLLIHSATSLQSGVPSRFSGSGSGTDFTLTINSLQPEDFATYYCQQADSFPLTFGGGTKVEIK	fold	0.08
